interaction score overview
# SYSTEM UNDER TEST: T1, 4H3189-bH
# T1 chain: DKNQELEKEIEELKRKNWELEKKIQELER
# TEST NAME: two-hybrid library CCNG1;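 note: natural log of median RNA to DNA barcode read ratio; higher means stronger binding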

- BINDER: "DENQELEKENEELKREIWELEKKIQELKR [4H1222-bH]"
  interaction score: -1.2
- BINDER: "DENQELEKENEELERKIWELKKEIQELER [4H1193-bH]"
  interaction score: -0.917
- BINDER: "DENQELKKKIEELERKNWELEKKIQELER [4H1845-bH]"
  interaction score: 0.462
- BINDER: "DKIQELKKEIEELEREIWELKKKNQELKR [4H2576-bH]"
  interaction score: 0.969
- BINDER: "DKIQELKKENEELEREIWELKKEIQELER [4H2697-bH]"
  interaction score: -0.0723
- BINDER: "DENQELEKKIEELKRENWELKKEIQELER [4H1369-bH]"
  interaction score: -0.572
- BINDER: "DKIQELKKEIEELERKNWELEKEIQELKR [4H2610-bH]"
  interaction score: 0.354

Hey, just so you know, these numbers are from paper PMC10397247.
